Target: NADPH oxidase 5 (Homo sapiens) (UniProt Q96PH1)
Sequence (Q96PH1 whole entry, looked up): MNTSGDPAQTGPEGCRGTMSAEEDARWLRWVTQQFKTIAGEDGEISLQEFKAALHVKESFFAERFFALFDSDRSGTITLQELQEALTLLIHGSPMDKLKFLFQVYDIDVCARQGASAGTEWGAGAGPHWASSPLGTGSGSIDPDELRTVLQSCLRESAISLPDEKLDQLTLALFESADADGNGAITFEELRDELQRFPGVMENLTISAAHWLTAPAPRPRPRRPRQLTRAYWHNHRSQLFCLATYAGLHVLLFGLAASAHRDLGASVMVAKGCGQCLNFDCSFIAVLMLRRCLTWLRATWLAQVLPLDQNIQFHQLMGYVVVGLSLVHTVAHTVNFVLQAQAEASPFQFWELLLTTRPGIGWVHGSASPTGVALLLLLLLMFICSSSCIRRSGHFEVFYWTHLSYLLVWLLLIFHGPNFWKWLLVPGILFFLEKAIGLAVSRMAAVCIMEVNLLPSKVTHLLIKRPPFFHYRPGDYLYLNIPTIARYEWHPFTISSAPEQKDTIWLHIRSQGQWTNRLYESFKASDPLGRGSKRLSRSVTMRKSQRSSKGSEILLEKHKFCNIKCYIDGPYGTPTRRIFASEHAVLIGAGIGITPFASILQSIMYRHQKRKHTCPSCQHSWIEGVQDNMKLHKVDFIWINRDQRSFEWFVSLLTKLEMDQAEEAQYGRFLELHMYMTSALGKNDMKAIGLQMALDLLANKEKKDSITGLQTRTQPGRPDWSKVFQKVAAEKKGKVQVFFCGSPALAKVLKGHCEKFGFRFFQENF
Experiment: NOX5-dependent H2O2 signal modulators, primary screen, NOX inhibitor project, cell-based, HEK293-NOX5, Amplex Red fluorescence (AID 1161)
Settings: HEK293-NOX5, ionomycin, 45 min, higher = more signal
measurement type: z-score

compound | assay target | measurement type | reported value
CN1C(=O)C2C=CC(C(O)c3cc(C(F)(F)F)cc(C(F)(F)F)c3)N(N3CCCCC3)C2C1=O (stereo not given) | NADPH oxidase 5 (Homo sapiens) (UniProt Q96PH1) | z-score | 1.01
CN1C2C=C(CCCO)C(C3C(=O)N(C(N)=O)C(=O)C32)C1c1ccc(CN2CCCC2)cc1 (stereo not given) | NADPH oxidase 5 (Homo sapiens) (UniProt Q96PH1) | z-score | -0.0223
CCCCN1CC=CC23O[C@@H]4/C=C\CCC(C)OC(=O)C4[C@H]2C(=O)N(CCCCCO)[C@@H]3C1=O (stereo not given in full) | NADPH oxidase 5 (Homo sapiens) (UniProt Q96PH1) | z-score | 1.21
COC(=O)[C@@]1(Cc2ccc(F)cc2)[C@@H]2[C@@H](CC(=O)[C@H]2CC(=O)C(=O)N(C)C)CN1C(=O)c1ccccc1 | NADPH oxidase 5 (Homo sapiens) (UniProt Q96PH1) | z-score | 0.256
COc1ccc(C(=O)Nc2ccc(CN3C(=O)[C@@]4(O[C@@H](CC(=O)N5CCC[C@H]5CO)[C@H]([Si](C)(C)c5ccc(OC)cc5)[C@H]4C)c4ccccc43)cc2)cc1 | NADPH oxidase 5 (Homo sapiens) (UniProt Q96PH1) | z-score | 4.5
COC(=O)[C@@]1(Cc2ccc(OC)cc2)[C@H]2c3cc(C(=O)N(C)C)n(CCN4CNCC4=O)c3C[C@H]2CN1C(=O)c1ccccc1 | NADPH oxidase 5 (Homo sapiens) (UniProt Q96PH1) | z-score | 0.453
CC(C)C(CO)N1C(=O)[C@@H]2[C@H]3C(=O)OCC=C[C@H]3OC23C=CCN(C(C)C)C(=O)[C@@H]13 (stereo not given in full) | NADPH oxidase 5 (Homo sapiens) (UniProt Q96PH1) | z-score | 1.23
COC(=O)[C@@]1(Cc2ccccc2)[C@H]2c3cc(C(=O)N4CCCC4)n(Cc4nc5ccccc5[nH]4)c3C[C@H]2CN1C(=O)c1ccccc1 | NADPH oxidase 5 (Homo sapiens) (UniProt Q96PH1) | z-score | -3
C=CCNC(=O)[C@H]1[C@@H]2C(=O)O[C@@H](c3ccccc3)[C@@H](c3ccccc3)N2[C@@H](c2ccccc2OCCO)[C@]12C(=O)Nc1ccc(C#CC3=CCCCC3)cc12 | NADPH oxidase 5 (Homo sapiens) (UniProt Q96PH1) | z-score | 1.75
CCOC(=O)[C@H]1CC=C2CC1C(=O)N1CCC[C@@H]1[C@@H]2O[Si](C)(C)C(C)(C)C (stereo not given in full) | NADPH oxidase 5 (Homo sapiens) (UniProt Q96PH1) | z-score | -3.9
O=C(O)[C@@]1(CCS(=O)(=O)c2ccccc2)COC(c2ccc(OCCCO)cc2)=N1 | NADPH oxidase 5 (Homo sapiens) (UniProt Q96PH1) | z-score | 0.779
C#CCN(Cc1ccccc1Br)C(/C=C/c1ccccc1)CO (stereo not given) | NADPH oxidase 5 (Homo sapiens) (UniProt Q96PH1) | z-score | -2.02
COc1ccc(CCN2C(=O)[C@@]3(c4ccc([N+](=O)[O-])cc4)CC(=O)N(C4CCCCC4)[C@@H]3c3ccc(CO)cc32)cc1 | NADPH oxidase 5 (Homo sapiens) (UniProt Q96PH1) | z-score | -0.0167
COc1ccc(C(O)C2C=CC3C(=O)NC(=O)C3N2Nc2ccccn2)c2ccccc12 (stereo not given) | NADPH oxidase 5 (Homo sapiens) (UniProt Q96PH1) | z-score | -2.08
CN1C(=O)C2C=CC(C(O)c3ccc(-c4ccccc4)s3)N(N(c3ccccc3)c3ccccc3)C2C1=O (stereo not given) | NADPH oxidase 5 (Homo sapiens) (UniProt Q96PH1) | z-score | -1.15

* * *

Below: a set of entries, each annotated with reported composite z-score.
Target: Torsin-1A (Homo sapiens)
Assay: torsin A binders from cell lysate, primary screen, small-molecule microarray, wild-type, 635/667 nm (AID 1149)
Conditions: COS7 hTOR1A-WT lysate, 635 nm fluorescence, higher = more signal
measurement type: composite z-score

structure as smiles | reported value
COCCOC(=O)N1C(=O)[C@@]2(c3cc(C#Cc4ccc(OC)cc4)ccc31)[C@H](C(N)=O)[C@H]1C(=O)O[C@H](c3ccccc3)[C@H](c3ccccc3)N1[C@@H]2c1ccccc1OCCO | 0.666
COC(=O)[C@@]1(Cc2ccc(F)cc2)[C@H]2c3cc(C(=O)N4CCCC4)n(Cc4ccc(C)o4)c3C[C@H]2CN1C(=O)c1ccccc1 | 0.19
C=CC[C@@]1(C(=O)NCc2ccccc2)N=C(c2ccc(OCCCO)cc2)O[C@@H]1c1ccccc1N=[N+]=[N-] | 1.23
CCCCc1cn(C[C@H](Cc2ccccc2)NC(=O)N[C@H](CO)CCc2oc(C(C)=O)c(C(=O)OC)c2C(=O)OC)nn1 | 0.992

* * *

Experiment: basal RPMI8226 mitochondrial membrane potential changes, profiling panel, cell-based, JC-1 fluorescence, 24 h, 100 nL compound (AID 1169); further: test concentration not given here
Details: RPMI8226 myeloma, JC-1 mitochondrial potential fluorescence, higher = more signal
Class Met: z-score at least -0.5. Class Not met: z-score below -0.5.

molecule | class
COCCCNC(=O)[C@@]1(Cc2ccccc2N=[N+]=[N-])N=C(c2ccc(OCCCO)cc2)O[C@H]1c1ccccc1N=[N+]=[N-] | Not met
COCCOC(=O)N1C(=O)[C@@]2(c3cc(C#CCCO)ccc31)[C@H](C(=O)Nc1nc3ccccc3s1)[C@H]1C(=O)O[C@H](c3ccccc3)[C@H](c3ccccc3)N1[C@@H]2c1ccc(OCCO)cc1 | Met
COC(=O)c1c(CC[C@@H](CO)NC(=O)N2CCC[C@H]2Cn2cc(-c3ccccn3)nn2)oc(C(C)=O)c1C(=O)OC | Met
C=CCN1C(=O)[C@]2(O[C@H](CCO)[C@@H]([Si](C)(C)c3ccc(OC)cc3)[C@@H]2C)c2cc(N3C(=O)c4cccc5cccc3c45)ccc21 | Not met
CC(=O)NCCCC[C@@H]1NC(=O)[C@@H]2C[C@H](C(=O)NCCCCN(C)C)[C@H](c3cccc(OCCO)c3)N2C1=O | Not met
CC(C)C[C@@H]1NC(=O)[C@@H]2C[C@H](C(=O)NCCCCCN)[C@H](c3cccc(OCCO)c3)N2C1=O | Not met
N#Cc1ccc(NN2C(C(O)c3c(F)cccc3Cl)C=CC3C(=O)N(c4ccccc4)C(=O)C32)cc1 (stereo not given) | Met
COCCOC(=O)N1C(=O)[C@@]2(c3cc(C#CC4=CCCCC4)ccc31)[C@H](c1ccc(O)cc1)N1[C@H](c3ccccc3)[C@H](c3ccccc3)OC(=O)[C@H]1[C@@H]2C(N)=O | Not met
COC(=O)[C@@]1(Cc2ccc(OC)cc2)[C@H]2c3cc(C(=O)N4CCCC4)n(Cc4ccccc4)c3C[C@H]2CN1C(=O)c1ccccc1 | Not met
C[C@]1(C(=O)NC2CC2)c2ccccc2C(=O)N(Cc2cc(C(F)(F)F)cc(C(F)(F)F)c2)[C@H]1c1ccc(CO)cc1 | Met
COc1ccc([C@H]2OC[C@@H]3CC4(CC=CC4)C(=O)N32)cc1 | Not met
CCCC#C[Si](O[C@H](CC)c1cn([C@H](CO)Cc2ccccc2)nn1)(C(C)C)C(C)C | Met
Cc1ccc(S[C@]2(C(=O)NC(C)C)CC(=O)N(Cc3ccccc3Cl)[C@@H]2c2ccc(CO)cc2I)cc1 | Met
CCCN1C(=O)[C@]2(CCS(=O)(=O)c3ccccc3)N=C(c3ccc(OCCCO)cc3)O[C@@H]2c2ccccc21 | Not met
COCCCN1C(=O)[C@@]2(c3ccc([N+](=O)[O-])cc3)CC(=O)N(C3CCCCC3)[C@@H]2c2ccc(CO)cc21 | Not met

* * *

Test: P. aeruginosa biofilm formation inhibitors, primary screen, PAO1 strain, BacTiter-Glo luminescence, LB-PBS (AID 1144)
Settings: 12 h, higher = more signal
Classes (z-score): low: < -0.7; intermediate: ≥ -0.7 and < -0.04; high: ≥ -0.04

compound | class
CN1C(=O)C2C=CC(C(O)C3CC=CCC3)N(NC(=O)OC(C)(C)C)C2C1=O (stereo not drawn) | high
COc1ccc(C(=O)O[C@H]2CC[C@]3(C)C4=C(CCC3C2(C)C)[C@]2(C)CC[C@H]([C@H](C)CCCC(C)C)[C@@]2(C)CC4)cc1 (stereo partly drawn) | low
COC(=O)[C@@]1(Cc2ccc(F)cc2)[C@H]2c3cc(C(=O)N(C)C)n(Cc4ccc(S(C)(=O)=O)cc4)c3C[C@H]2CN1C(=O)c1ccccc1 | intermediate
CN(C)CCCCCCNC(=O)[C@@H]1C[C@@H]2C(=O)N[C@@H](CCCCN)C(=O)N2[C@@H]1c1cccc(OCCO)c1 | low
CN1C(=O)C2C=CC(C(O)c3cc(C(F)(F)F)cc(C(F)(F)F)c3)N(N3CCCCC3)C2C1=O (stereo not drawn) | intermediate
COC(=O)[C@@]1(Cc2ccc(F)cc2)[C@@H]2[C@@H](CC(=O)[C@H]2CC(=O)C(=O)N(C)C)CN1C(=O)c1ccccc1 | high
CN1C(=O)C2C=CC(C(O)Cc3ccccc3)N(Nc3ccccc3)C2C1=O (stereo not drawn) | low
C#CCNC(=O)[C@H](Cc1ccccc1)NC(=O)CCC(=O)O | high
CCCC=C(CCC)[C@@H](NC(=O)Oc1ccc(F)cc1)c1ccc(C(=O)OC)cc1 | intermediate
CCCCC(=C=CC[C@@H](O)c1ccccc1OCCO)CCO | intermediate
O=C1O[C@@H](c2ccccc2)[C@@H](c2ccccc2)N2[C@@H](c3ccccc3OCCO)[C@]3(C(=O)Nc4ccc(C#CC5=CCCCC5)cc43)[C@@H](C(=O)Nc3nc4ccccc4s3)[C@H]12 | low
COc1cc(OC)c(C(O)C2C=CC3C(=O)NC(=O)C3N2Nc2ccc(Cl)cc2Cl)cc1Br (stereo not drawn) | low
COCCOC(=O)N1C(=O)[C@@]2(c3cc(C#CC4=CCCCC4)ccc31)[C@H](C(=O)Nc1nc3ccccc3s1)[C@H]1C(=O)O[C@H](c3ccccc3)[C@H](c3ccccc3)N1[C@@H]2c1ccccc1OCCO | low
CN(C)CCCC[C@@H]1NC(=O)[C@H]2C[C@@H](C(=O)NCCCCCNC(=O)CS)[C@@H](c3cccc(OCCO)c3)N2C1=O | intermediate
CCCCCC1=C2CNC(CCC)(C(=O)OC)C=C2C(C)C1=O (stereo not drawn) | high
CC(C)[C@@H](CO)NC(=O)[C@H]1[C@@H](c2ccccc2)N(c2ccccc2)O[C@@H]1C | low
COCCOC(=O)N1C(=O)[C@@]2(c3cc(C#CC4(O)CCCCCC4)ccc31)[C@H](c1ccc(O)cc1)N1[C@H](c3ccccc3)[C@H](c3ccccc3)OC(=O)[C@H]1[C@@H]2C(=O)Nc1nc2ccccc2s1 | high
CC(C)OC(=O)C=C1C[C@@H](c2ccccc2C(F)(F)F)O[C@@H](c2ccccc2C(F)(F)F)O1 | high
OC([C@@H]1CC(c2ccccc2)=NO1)[C@H]1CC(c2ccccc2)=NO1 (stereo partly drawn) | high
COCCOC(=O)N1C(=O)[C@@]2(c3cc(C#CCNC(N)=O)ccc31)[C@H](C(=O)NC[C@H](O)c1ccccc1)[C@H]1C(=O)O[C@H](c3ccccc3)[C@H](c3ccccc3)N1[C@@H]2c1ccccc1OCCO | high
CCOC(=O)C[C@H]1[C@H](OC(=O)Cc2ccc3c(c2)OCO3)[C@@H](NC(=O)c2ccc(-c3ccccc3)cc2)c2cc(OCCCO)ccc2N1C(=O)c1ccc2ccccc2n1 | intermediate
C=CCOC(=O)[C@H]1[C@@H]2C(=O)O[C@@H](c3ccccc3)[C@@H](c3ccccc3)N2[C@@H](c2ccc(OCCOC(=O)[C@@H]3C[C@@H]4C(=O)N5CCC[C@H]5C(=O)N4[C@@H]3c3cccc(OCCO)c3)cc2)[C@]12C(=O)Nc1ccccc12 | high
C=CCNC(=O)[C@@H]1[C@H]2C(=O)O[C@H](c3ccccc3)[C@H](c3ccccc3)N2[C@H](c2ccccc2OCCO)[C@@]12C(=O)N(C(=O)OCCOC)c1ccc(C#CCNC(N)=O)cc12 | intermediate
NC(=O)[C@@H]1[C@H]2C(=O)O[C@H](c3ccccc3)[C@H](c3ccccc3)N2[C@H](c2ccc(O)cc2)[C@@]12C(=O)Nc1ccc(C#CC3(O)CCCCCC3)cc12 | intermediate
O=C1c2ccccc2[C@@]2(Cc3ccccc3N(CCN3CCOCC3)C2=O)[C@H](c2ccc(CO)cc2)N1Cc1ccccc1 | low
COc1ccc(C(O)C2C=CC3C(=O)N(c4ccccc4)C(=O)C3N2Nc2ccccc2F)cc1OCc1ccccc1 (stereo not drawn) | intermediate
Cc1ccc(S[C@]2(C(=O)NCCN3CCOCC3)CC(=O)N(Cc3ccccc3Cl)[C@@H]2c2ccc(CO)cc2)cc1 | low
C#CCN(CC1=CCCCC1)[C@H](c1ccccc1Br)[C@@H](O)Cc1ccccc1 | high
